Attribution: the RNAGym collection of RNA variant scans (doi:10.7554/elife.90254)

B1: LINE1-full (parent)
chain: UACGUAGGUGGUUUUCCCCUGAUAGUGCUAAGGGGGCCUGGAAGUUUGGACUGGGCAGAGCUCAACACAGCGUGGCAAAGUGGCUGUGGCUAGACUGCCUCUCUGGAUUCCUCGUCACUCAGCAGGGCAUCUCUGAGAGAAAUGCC

# Variants of: B1
# Assay method text: self-cleavage, relative activity (ratio to wild type); higher = more cleavage; in vitro, sequencing; the parent is a self-cleaving ribozyme
Recorded self-cleavage determines the label; the label ranges are 0 = under 0.3, 1 = from 0.3 up to 1, 2 = 1 and over

**Query** Which of the defined bands does the recorded self-cleavage of UACGUAGGCAGUUUUCCCCUGAUAGUGCUAAGGGGGCCUGGAAGUUUGGACUGGGCAGAGCUCAACACAGCGUGGCAAAGUGGCUGUGGCUAGACUGCCUCUCUGGAUUCCUCGUCACUCAGCAGGGCAUCUCUGAGAGAAAUGCC [U9C G10A] sit within?
**Result** 1

**Query** Which of the defined bands does the recorded self-cleavage of UACGUAGGUGGUUUUCCCCUGAUAGUGCUAAGGGGGCCUGGAAGUUUGGACUGGGCAGAGCUCAACACAGUGUGGCAGAGUGGCUGUGGCUAGACUGCCUCUCUGGAUUCCUCGUCACUCAGCAGGGCAUCUCUGAGAGAAAUGCC [C71U A78G] sit within?
**Result** 1

**Query** Which of the defined bands does the recorded self-cleavage of UACGAAGGUGGUUUUCCCCUGAUAGUGCUAAGGGGGCCUGGAAGUUUGGACUGGGCAGAGCUCAACACAGCGUGGCAAAGUGGCUGUGGCUAGUCUGCCUCUCUGGAUUCCUCGUCACUCAGCAGGGCAUCUCUGAGAGAAAUGCC [U5A A94U] sit within?
**Result** 1

**Query** Which of the defined bands does the recorded self-cleavage of UACGCAGGUGGUUUUCCCCUGAUAGUGCUAAGGGGGCCUGGAAGUUUGGACUGGGCAGAGCUCAACACAGCGUGGCAAAGUGGCUGUGGCUAGACUGCCUCUCUGGAUUCCUCGCCACUCAGCAGGGCAUCUCUGAGAGAAAUGCC [U5C U115C] sit within?
**Result** 2

**Query** Which of the defined bands does the recorded self-cleavage of UACGUAGGUGGUUUUCCCCUGAUAGUGCUAAGGGGGCCUGGAAGUUUGGACUGGGCAGAGCACAACACAGCGUGGCAAAGUGGCUGUGGCUAGACUGCCUCUCUGGAUUCCUCGUCACUCAGCGGGGCAUCUCUGAGAGAAAUGCC [U62A A124G] sit within?
**Result** 0

**Query** Which of the defined bands does the recorded self-cleavage of UACGUAGGUGGUUUUCCCCUGAUAGUGCUAAGGGGGCCUGGAAGUUUGGGCUGGGCAGAGCUCAACACAGCGUGGCAAAGUGGCCGUGGCUAGACUGCCUCUCUGGAUUCCUCGUCACUCAGCAGGGCAUCUCUGAGAGAAAUGCC [A50G U85C] sit within?
**Result** 0

**Query** Which of the defined bands does the recorded self-cleavage of UACGUAGGUGGUUUUCCCCUGAUAGCGCUAAGGGGGCCUGGAAGUUUGGACUGGGCAGAGCUCAACACAGCGUGGCGAAGUGGCUGUGGCUAGACUGCCUCUCUGGAUUCCUCGUCACUCAGCAGGGCAUCUCUGAGAGAAAUGCC [U26C A77G] sit within?
**Result** 2

**Query** Which of the defined bands does the recorded self-cleavage of UACGUAGGUGGUUUUCCCCUGAUAGUGCUAAGGGGGCCUGGAGGUUUGGACUGGGCAGAGCUCAACACUGCGUGGCAAAGUGGCUGUGGCUAGACUGCCUCUCUGGAUUCCUCGUCACUCAGCAGGGCAUCUCUGAGAGAAAUGCC [A43G A69U] sit within?
**Result** 0

**Query** Which of the defined bands does the recorded self-cleavage of UACGUUGGUGGUUUUCCCCUGAUAGUGCUAAGGGGGCCUGGAAGUUUGGACUGGGCAGAGCUGAACACAGCGUGGCAAAGUGGCUGUGGCUAGACUGCCUCUCUGGAUUCCUCGUCACUCAGCAGGGCAUCUCUGAGAGAAAUGCC [A6U C63G] sit within?
**Result** 0

**Query** Which of the defined bands does the recorded self-cleavage of UACGUAGGUGGUUUUCCCCUGAUAGUGCUAAGGGUGCCUGGAAGUUUGGACUGGGCAGAGCUCAACACAGCGUGGCAAAGUGGCUGUGGCUAGACUGCCUCUCUGGAUUCCUCGUCACUCAGCAGGGCAUCUCUGAGAGAAAAGCC [G35U U143A] sit within?
**Result** 2

New cases:
**Query** Which of the defined bands does the recorded self-cleavage of UACGUAGGUGGUUUUCCCCUGGUAGUGCUAAGGGGGCCUGGAAAUUUGGACUGGGCAGAGCUCAACACAGCGUGGCAAAGUGGCUGUGGCUAGACUGCCUCUCUGGAUUCCUCGUCACUCAGCAGGGCAUCUCUGAGAGAAAUGCC [A22G G44A] sit within?
**Result** 2

**Query** Which of the defined bands does the recorded self-cleavage of UACGUAGGUGGUUUUCCCCUGAUAGUGCUAAGGGGGCCUGGAAGUUUGGACUGGGCAGAGCUCAACACAGCGUGGCAAGGUGGCUGUGUCUAGACUGCCUCUCUGGAUUCCUCGUCACUCAGCAGGGCAUCUCUGAGAGAAAUGCC [A79G G89U] sit within?
**Result** 0

**Query** Which of the defined bands does the recorded self-cleavage of UACGGAGGUGGUUUUCCCCUGAUAGUGCUAAGGGGGCCUGGAAGUUUGGACUGGGCAGAGCUCAACUCAGCGUGGCAAAGUGGCUGUGGCUAGACUGCCUCUCUGGAUUCCUCGUCACUCAGCAGGGCAUCUCUGAGAGAAAUGCC [U5G A67U] sit within?
**Result** 1

**Query** Which of the defined bands does the recorded self-cleavage of UACGUAGGUGGUCUUCCCCUGAUAGUGCUAAGGGGGCCUGGAAGUUUGGACUGGGCAGAGCUCAACACAGCGUGGCAAAGUGGCUGUGGCUAGACUGCCUCUCUGGAUUCCUCGUCACUCAGCAGGGCAUCUCUGAGAAAAAUGCC [U13C G139A] sit within?
**Result** 1

**Query** Which of the defined bands does the recorded self-cleavage of UACGUAGGUGGUUUUCCCCUGAUAGAGCUAAGGGGGCCUGGAAGUUUGGACUGGGCAGAGCCCAACACAGCGUGGCAAAGUGGCUGUGGCUAGACUGCCUCUCUGGAUUCCUCGUCACUCAGCAGGGCAUCUCUGAGAGAAAUGCC [U26A U62C] sit within?
**Result** 0

**Query** Which of the defined bands does the recorded self-cleavage of UACGUAGGUGGUUUUCCCCUGUUAGUGCUAAGGGGGCCUGGAAGUUUGGACUGGGCAGAGCUCAACACAGCGUGGCAAAGUGGCUGUGGCUAGACUGCCUCUCUGGAUUCCUCGUCACUCAGCAGGGCAACUCUGAGAGAAAUGCC [A22U U130A] sit within?
**Result** 2

**Query** Which of the defined bands does the recorded self-cleavage of UACGUAGGUGGUUUUCCCCUGAUAGUGCUAAGGGGGCCUGGAAGUUUGGACUGGGCAGAGCUCAACACAGUGUGGCAAAGUGGCUGUGGCUAGACUGCCUCUCUGGAUUCCUCGUCACUCAGCAGGGCAUCUCUGAGUGAAAUGCC [C71U A138U] sit within?
**Result** 2

**Query** Which of the defined bands does the recorded self-cleavage of UACGUAGGUGGUUUUCCCCUGAUAGUGCUAAGGGGGCCUGGAAGUUUGGACUGGGCAGAGCUCAACACAGCGUGGAAAAGUGGCUGCGGCUAGACUGCCUCUCUGGAUUCCUCGUCACUCAGCAGGGCAUCUCUGAGAGAAAUGCC [C76A U87C] sit within?
**Result** 1

**Query** Which of the defined bands does the recorded self-cleavage of UACGUAGGUGGUUUUCCCCUGAUAGUGCUAAGGGGGCCUGGAAGUUUGGACUGGGCAGAGCUCAACACAGCGUGGCAAAGUGGCUGUGGCUAGACUGCCGCUCUGGGUUCCUCGUCACUCAGCAGGGCAUCUCUGAGAGAAAUGCC [U100G A107G] sit within?
**Result** 2

**Query** Which of the defined bands does the recorded self-cleavage of UACGUAGGUGGUUUUCCCCUGAUAGUGCUAAGGGGGCCUGGAAGUUUGGACUGGGCAGAGCUCAACACAGCGUGGCAAAGUGGCAGUGGCUAGACUGCCUCUCUGGAUUCAUCGUCACUCAGCAGGGCAUCUCUGAGAGAAAUGCC [U85A C111A] sit within?
**Result** 0

**Query** Which of the defined bands does the recorded self-cleavage of UACGUAUGUGGUUUUCCCCUGAUAGUGCUAAGGGGGCCUGGAAGUUUGGACUGGGCAGAGCUCAACACAGCGUGGCAAGGUGGCUGUGGCUAGACUGCCUCUCUGGAUUCCUCGUCACUCAGCAGGGCAUCUCUGAGAGAAAUGCC [G7U A79G] sit within?
**Result** 1
